Target: Recombinant IDO1 (Homo sapiens, UniProt P14902)
Construct: His tag (N); made in house; host or cells: E. coli
Sequence (P14902 whole entry): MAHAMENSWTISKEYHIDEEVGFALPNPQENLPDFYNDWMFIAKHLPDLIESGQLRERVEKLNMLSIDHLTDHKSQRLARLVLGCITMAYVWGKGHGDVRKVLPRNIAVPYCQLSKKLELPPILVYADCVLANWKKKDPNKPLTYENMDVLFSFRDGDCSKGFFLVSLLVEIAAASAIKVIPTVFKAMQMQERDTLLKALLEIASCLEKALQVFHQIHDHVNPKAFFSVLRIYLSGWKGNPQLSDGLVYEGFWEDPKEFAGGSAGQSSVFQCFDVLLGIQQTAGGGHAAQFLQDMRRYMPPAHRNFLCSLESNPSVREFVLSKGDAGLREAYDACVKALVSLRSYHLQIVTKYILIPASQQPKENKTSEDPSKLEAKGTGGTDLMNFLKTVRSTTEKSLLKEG
Test: IDO1 enzymatic assay
Format: biochemical
Details: Table 2, 8-substituted imidazo[1,5-a]pyridines; 50 nM IDO1, 1.3 mM D-tryptophan; read-out: Enzyme IC50 (nM) IDO1
Method: Recombinant IDO1 was overexpressed and purified from E. coli cells with an N-terminal His tag. IDO1 enzymatic assay was carried out using a methodology similar to described in the literature (J. Biol. Chem. (1980), 255, 1339-1345.). […] After incubation at 24° C. for 1.5 hours, absorbance of the reaction mixture was continuously read at 321 nm to monitor the formation of N′-formylkynurenine by a FULOstar OMEGA plate reader (BMG LABTECH) for 1 hour. […]
We label by threshold. Values of IC50 strictly beneath 90 nM are Fulfilled. Values of 90 nM and up are Not fulfilled.

* OC(c1c(Cl)ccn2cncc12)C1CCCCC1 (centres unmarked) | Fulfilled
* OC(c1c([C@H]2C[C@@H]2F)ccn2cncc12)C1CCCCC1 (mixture of isomers) [Example B128a] | Not fulfilled
* OC(CC1CCCCC1)c1c(C2CC2)ccn2cncc12 (single isomer, unassigned) [Example B110a] | Fulfilled

Could you now consider this next compound?
I'd appreciate it if you could check whether OC(c1ccccc1)c1cccn2cncc12 (centres unmarked) has IC50 smaller than 90 nM.
Not fulfilled

###

target: Recombinant TDO (Homo sapiens, UniProt P48775); construct: His tag (C); made in house; host or cells: E. coli; test: TDO enzymatic assay; type: biochemical; conditions: Table 2, 8-substituted imidazo[1,5-a]pyridines; 100 nM TDO, 0.5 mM L-tryptophan; read-out: Enzyme IC50 (nM) TDO
Sequence (P48775 whole entry): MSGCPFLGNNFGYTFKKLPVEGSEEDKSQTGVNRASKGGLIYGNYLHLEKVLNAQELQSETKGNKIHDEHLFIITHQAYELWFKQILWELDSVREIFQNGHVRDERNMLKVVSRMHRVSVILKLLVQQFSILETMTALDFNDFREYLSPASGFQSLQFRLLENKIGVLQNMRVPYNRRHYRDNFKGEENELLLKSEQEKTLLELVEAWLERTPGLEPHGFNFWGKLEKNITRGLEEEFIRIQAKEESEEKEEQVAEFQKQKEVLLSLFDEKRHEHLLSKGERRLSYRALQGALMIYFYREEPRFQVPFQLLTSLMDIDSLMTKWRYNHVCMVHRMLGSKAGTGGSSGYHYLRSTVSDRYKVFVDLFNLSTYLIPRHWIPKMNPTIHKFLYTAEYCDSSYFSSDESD
readout.type: IC50 (nM)
Give bare numbers, in nM.

• Cc1ccn2cncc2c1C(O)C1CCCCC1 (stereo not drawn) [Example B102] = 360
• OC(CC1CCCCC1)c1cccn2cncc12 (stereo not drawn) = 3300

# value lookup — system Recombinant TDO (Homo sapiens, UniProt P48775), readout IC50, item OC(CCC1CCCCC1)c1cccn2cncc12 (stereo not drawn)
17000

###

biological target: cellular IDO1 in HeLa cells (Homo sapiens, UniProt P14902); construct: endogenous in cells; host or cells: HeLa cells (American Type Tissue Culture Collection), induced with human recombinant IFN-γ; experiment: HeLa cell-based IDO1 Kyn (kynurenine) production assay; conditions: Table 1, 5-substituted imidazo[1,5-a]pyridines, IFN-γ 100 ng/mL, 48 hours
Sequence (P14902 whole entry): as the sequence (P14902 whole entry) above
readout.type: pEC50
Give bare numbers, as −log10 of the molar value.

# count of solved cases: 2
* OC(c1c(Cl)c(F)cc2cncn12)C1CCCCC1 (stereo not drawn) | 6.38
* OC(c1c(Cl)c(Br)cc2cncn12)C1CCCCC1 (stereo not drawn) | 5.83

Okay, next one:
Report pEC50 for CC(C1CCCCC1)C(O)c1c(Cl)ccc2cncn12 (stereo not drawn) tested on cellular IDO1 in HeLa cells (Homo sapiens, UniProt P14902).
5.80

###

molecular target: Recombinant TDO (Homo sapiens, UniProt P48775); construct: His tag (C); made in house; host or cells: E. coli; experiment: TDO enzymatic assay; type: biochemical; conditions: Table 1, 5-substituted imidazo[1,5-a]pyridines; 100 nM TDO, 0.5 mM L-tryptophan; read-out: Enzyme IC50 (nM) TDO
readout.type: IC50 (nM)
One number for each entry, in nM.

Observe how each entry below is paired with its result.
- CC(C)c1ccc2cncn2c1C(O)C1CCCCC1 (stereo not drawn): 2700
- OC1CCC(C(O)c2c(C3CC3)ccc3cncn23)CC1 (stereo not drawn): 64000
- OC1CCCCC1C(O)c1c(C2CC2)ccc2cncn12 (stereo not drawn): 3900

Provide reported IC50 for each item, in the same order as listed.
1. OC(c1c(C2CC2)ccc2cncn12)C1CCCCC1 (single isomer, unassigned) [Example A126a]
2. OC(c1c(C(F)(F)F)ccc2cncn12)C1CCCCC1 (stereo not drawn)
3. OC(c1c(Br)ccc2cncn12)C1CCCC1 (stereo not drawn)

1. 14000
2. 3100
3. 3700
